Measured values drawn from patent US20020142347A1 for this set.

Entries and their Relative emission of FACI-53 at 495 nm, fold increase values follow.
Biological target: FACI53 (Bos taurus, UniProt P07107, A54C)
Construct: badan (6-bromoacetyl-2-dimethylaminonaphthalene) fluorophore on the introduced Cys-53; made in house; host or cells: E. coli BL21(DE3)pLysS, pET3a vector
Sequence (P07107 2-87 A54C): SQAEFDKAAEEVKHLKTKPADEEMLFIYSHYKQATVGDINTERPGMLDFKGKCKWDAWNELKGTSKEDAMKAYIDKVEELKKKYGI
Assay: Fluorescence emission change of FACI-53 on titration with CoA and acyl-CoA esters
Assay type: binding, bovine
Conditions: emission at 495 nm
experimental-endpoint: Relative emission of FACI-53 at 495 nm, fold increase (fold)

1. CCCCCCCCCCCC(=O)SCCNC(=O)CCNC(=O)[C@H](O)C(C)(C)COP(=O)(O)OP(=O)(O)OC[C@H]1O[C@@H](n2cnc3c(N)ncnc32)[C@H](O)[C@@H]1OP(=O)(O)O [C12:0-CoA, dodecanoyl-CoA]    4.7
2. CC(C)(COP(=O)(O)OP(=O)(O)OC[C@H]1O[C@@H](n2cnc3c(N)ncnc32)[C@H](O)[C@@H]1OP(=O)(O)O)[C@@H](O)C(=O)NCCC(=O)NCCS [CoASH, Coenzyme A]    1.5
3. CCCCCCCC(=O)SCCNC(=O)CCNC(=O)[C@H](O)C(C)(C)COP(=O)(O)OP(=O)(O)OC[C@H]1O[C@@H](n2cnc3c(N)ncnc32)[C@H](O)[C@@H]1OP(=O)(O)O [C8:0-CoA]    4.8

----------
Biological target: FACI-24 (Bos taurus, UniProt P07107, M25C)
Construct: made in house; host or cells: E. coli BL21(DE3)pLysS, pET3a vector
Sequence (P07107 2-87 M25C): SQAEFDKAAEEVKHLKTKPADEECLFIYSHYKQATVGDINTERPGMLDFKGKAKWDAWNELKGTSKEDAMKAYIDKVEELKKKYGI
Assay: Fluorescence titration equilibrium binding analysis of CoA and acyl-CoA esters to FACI-24
Design: species or system bovine
Conditions: FACI-24 (1.5 μM) titrated with increasing CoA and acyl-CoA concentration; fitted binding curves, emission 460 nm; read-out: Kd (nM) ± S.E.
# if measured Kd < 60 nM: Condition met  # else: Condition not met

1) CCCCCCCCCCCCCC(=O)SCCNC(=O)CCNC(=O)[C@H](O)C(C)(C)COP(=O)(O)OP(=O)(O)OC[C@H]1O[C@@H](n2cnc3c(N)ncnc32)[C@H](O)[C@@H]1OP(=O)(O)O    Condition met
2) CCCCCCCCCCCCCCCC(=O)SCCNC(=O)CCNC(=O)[C@H](O)C(C)(C)COP(=O)(O)OP(=O)(O)OC[C@H]1O[C@@H](n2cnc3c(N)ncnc32)[C@H](O)[C@@H]1OP(=O)(O)O    Condition met
3) CC(C)(COP(=O)(O)OP(=O)(O)OC[C@H]1O[C@@H](n2cnc3c(N)ncnc32)[C@H](O)[C@@H]1OP(=O)(O)O)[C@@H](O)C(=O)NCCC(=O)NCCS    Condition not met
4) CCCCCCCCCCCC(=O)SCCNC(=O)CCNC(=O)[C@H](O)C(C)(C)COP(=O)(O)OP(=O)(O)OC[C@H]1O[C@@H](n2cnc3c(N)ncnc32)[C@H](O)[C@@H]1OP(=O)(O)O    Condition met
